biological target: human melanocortin-4 receptor (human, UniProt P32245 1-332); test: cell-based or functional assay
Sequence (P32245 whole entry): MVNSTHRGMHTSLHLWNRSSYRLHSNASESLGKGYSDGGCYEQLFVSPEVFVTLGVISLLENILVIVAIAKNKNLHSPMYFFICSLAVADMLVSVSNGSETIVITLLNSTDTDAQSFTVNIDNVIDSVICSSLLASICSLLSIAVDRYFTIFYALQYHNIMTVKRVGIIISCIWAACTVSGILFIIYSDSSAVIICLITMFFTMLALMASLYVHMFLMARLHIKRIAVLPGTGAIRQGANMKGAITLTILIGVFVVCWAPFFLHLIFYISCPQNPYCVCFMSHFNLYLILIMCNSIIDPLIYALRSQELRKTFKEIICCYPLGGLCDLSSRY
Positions of bridges follow the written chain, without caps; N, C: chain ends. Non-standard residues stand in square brackets, D forms with d. dPhe(4-CN) = N#Cc1ccc(C[C@@H](N)C(=O)O)cc1; dPhe(3-Cl) = N[C@H](Cc1cccc(Cl)c1)C(=O)O; dPhe(2-Cl) = N[C@H](Cc1ccccc1Cl)C(=O)O; Orn = NCCC[C@H](N)C(=O)O
Intrinsic Activity, cAMP, 10 ng/mL Doxycycline values, listed per item
Please respond with the number in % and leave the unit unwritten.

>>> quantitative_readout("Ac-RET[dPhe(4-CN)]RW[Orn]-NH2 (lactam 2-7; SMILES CC(=O)N[C@@H](CCCNC(=N)N)C(=O)N[C@H]1CCC(=O)NCCC[C@@H](C(N)=O)NC(=O)[C@H](Cc2c[nH]c3ccccc23)NC(=O)[C@H](CCCNC(=N)N)NC(=O)[C@@H](Cc2ccc(C#N)cc2)NC(=O)[C@H]([C@@H](C)O)NC1=O, also called No. 44) [Ac-Arg-cyclo(Glu-Thr-D-Phe(4-CN)-Arg-Trp-Orn)-NH2]")
99
>>> quantitative_readout("Ac-REQ[dPhe(4-CN)]RW[Orn]-NH2 (lactam 2-7; also: acetate salt, acetate salt form; also called Ex 46) [Ac-Arg-cyclo(Glu-Gln-D-Phe(4-CN)-Arg-Trp-Orn)-NH2]")
97
>>> quantitative_readout("Ac-R[Orn]Q[dPhe(2-Cl)]RWE-NH2 (lactam 2-7) [Ac-Arg-cyclo(Orn-Gln-D-Phe(2-Cl)-Arg-Trp-Glu)-NH2]")
101
>>> quantitative_readout("Ac-REK[dPhe(3-Cl)]RW[Orn]-NH2 (lactam 2-7; SMILES CC(=O)N[C@@H](CCCNC(=N)N)C(=O)N[C@H]1CCC(=O)NCCC[C@@H](C(N)=O)NC(=O)[C@H](Cc2c[nH]c3ccccc23)NC(=O)[C@H](CCCNC(=N)N)NC(=O)[C@@H](Cc2cccc(Cl)c2)NC(=O)[C@H](CCCCN)NC1=O, also called No. 100) [Ac-Arg-cyclo(Glu-Lys-D-Phe(3-Cl)-Arg-Trp-Orn)-NH2]")
93
>>> quantitative_readout("XDQXRWK (N-terminal Ac; D-Arg 1; D-Phe(2-Cl) 4; lactam Asp 2-Lys 7; C-terminal NH2, also called No. 79) [Ac-D-Arg-cyclo(Asp-Gln-D-Phe(2-Cl)-Arg-Trp-Lys)-NH2]")
85

Enquiry: // fetch Intrinsic Activity, cAMP, 10 ng/mL Doxycycline given entry Ac-RET[dPhe(3-Cl)]RW[Orn]-NH2 (lactam 2-7; SMILES CC(=O)N[C@@H](CCCNC(=N)N)C(=O)N[C@H]1CCC(=O)NCCC[C@@H](C(N)=O)NC(=O)[C@H](Cc2c[nH]c3ccccc23)NC(=O)[C@H](CCCNC(=N)N)NC(=O)[C@@H](Cc2cccc(Cl)c2)NC(=O)[C@H]([C@@H](C)O)NC1=O, also called No. 36) [Ac-Arg-cyclo(Glu-Thr-D-Phe(3-Cl)-Arg-Trp-Orn)-NH2]
Return: 89

Enquiry: // fetch Intrinsic Activity, cAMP, 10 ng/mL Doxycycline given entry Ac-REN[dPhe(4-CN)]RW[Orn]-OH (lactam 2-7, also called No. 85) [Ac-Arg-cyclo(Glu-Asn-D-Phe(4-CN)-Arg-Trp-Orn)-OH]
Return: 94

Enquiry: // fetch Intrinsic Activity, cAMP, 10 ng/mL Doxycycline given entry Ac-REN[dPhe(2-Cl)]RW[Orn]-NH2 (lactam 2-7; SMILES CC(=O)N[C@@H](CCCNC(=N)N)C(=O)N[C@H]1CCC(=O)NCCC[C@@H](C(N)=O)NC(=O)[C@H](Cc2c[nH]c3ccccc23)NC(=O)[C@H](CCCNC(=N)N)NC(=O)[C@@H](Cc2ccccc2Cl)NC(=O)[C@H](CC(N)=O)NC1=O, also called No. 84) [Ac-Arg-cyclo(Glu-Asn-D-Phe(2-Cl)-Arg-Trp-Orn)-NH2]
Return: 97
